Collected inhibition at 1 µM values appear next to each entry.
Tested system: RORγt (Homo sapiens)
Sequence (P51449 1-497 isoform P51449-2, species assumed): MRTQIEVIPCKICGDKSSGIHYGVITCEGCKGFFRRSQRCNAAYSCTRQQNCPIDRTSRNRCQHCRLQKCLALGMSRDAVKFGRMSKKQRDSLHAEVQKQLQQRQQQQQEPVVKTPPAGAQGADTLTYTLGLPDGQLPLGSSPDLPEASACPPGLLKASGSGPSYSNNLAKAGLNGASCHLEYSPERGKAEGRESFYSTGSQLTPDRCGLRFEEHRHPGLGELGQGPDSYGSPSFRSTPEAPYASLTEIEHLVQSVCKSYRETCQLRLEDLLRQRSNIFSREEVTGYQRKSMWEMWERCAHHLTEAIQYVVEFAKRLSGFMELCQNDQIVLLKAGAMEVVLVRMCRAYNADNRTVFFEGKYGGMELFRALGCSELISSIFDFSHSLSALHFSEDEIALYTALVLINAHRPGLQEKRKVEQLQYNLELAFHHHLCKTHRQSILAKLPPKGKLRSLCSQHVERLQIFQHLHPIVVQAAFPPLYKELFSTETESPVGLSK
Test summary: RORγt binding test using fluorescent-labeled synthetic ligand (TR-FRET)
Assay setup: read-out: binding inhibitory rate of fluorescent-labeled synthetic ligand to RORγt at test compound 1 μM
// units = %; emit number, no label

* COc1ccc2c(c1)CCN(C(=O)[C@H]1C[C@@H](CC(=O)O)C1)[C@H]2C(=O)Nc1ccc([Si](C)(C)C)c(F)c1 | 102
* COc1ccc2c(n1)CCN(C(=O)[C@@H]1C[C@H]1CC(=O)O)[C@H]2C(=O)Nc1cc(F)c([Si](C)(C)C)c(F)c1 | 101

Prompt: Returns the measured inhibition at 1 µM for the input compound. Input: `COc1ccc2c(c1)CCN(C(=O)[C@H]1C[C@H](C(=O)O)C1)[C@H]2C(=O)Nc1cc(F)c([Si](C)(C)C)c(F)c1`
Response: 102

Every entry's value here was drawn from patent US10093629B2.
